These entries and their values trace back to PubChem BioAssay (EPA / NIEHS).

- TEST_SUMMARY: CEETOX_H295R_PROG: CeeTox H295R High-throughput Steroidogenesis Assay for Progesterone (PROG) (AID 2283442);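 also: human H295R adrenal cells primed with 10 µM forskolin before dosing; progesterone secreted into medium by H295R cells measured by HPLC-MS/MS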
- EXPERIMENTAL_SETUP: actives raise or lower the signal
Activity calls are given as the source filed them. The calls were made as follows: active = hit-call score of the fitted dose curve at least 0.9, where 1 is the maximum; inactive = score below 0.9.
Quick reference: AC50 of the listed items.

Please review the following examples before continuing.
COMPOUND_STRUCTURE_STRING	AC50
C#C[C@]1(O)CC[C@H]2[C@@H]3CCc4cc(OC)ccc4[C@H]3CC[C@@]21C	3.58 µM (active)
Nc1ccc(Oc2cccc(Oc3ccc(N)cc3)c2)cc1	3.9 µM (active)

// switching to the query compound
For record c1ccc(B(c2ccccc2)c2ccccc2)cc1 the listed AC50 is 12.6 µM (active)
